Form field: MIC (one value per entry).
Test system: Mycobacterium tuberculosis
Test: Antimicrobial activity against Mycobacterium tuberculosis H37Rv infected in mouse J774A.1 macrophages
Assay type: functional
Record the value in µg/mL, omitting the unit from your answer.

[[record]]
compound = "CC1COc2c(N3CCN(C)CC3)c(F)cc3c(=O)c(C(=O)O)cn1c23 (centres undefined)"
measurement = 2

[[record]]
compound = "C[C@@H]1CN(c2c(F)c(N)c3c(=O)c(C(=O)O)cn(C4CC4)c3c2F)C[C@H](C)N1"
measurement = 2

[[record]]
compound = "O=C(O)c1cn(C2CC2)c2cc(N3CCNCC3)c(F)cc2c1=O"
measurement = 4


Field: next compound
## Task Fill in MIC for record COc1c(N2C[C@@H]3CCCN[C@@H]3C2)c(F)cc2c(=O)c(C(=O)O)cn(C3CC3)c12
## Result 1

---

Assay: Fraction unbound ligand in mouse plasma at 0.01 to 50 mg/litre
Format: ADME, cell-free
metric: fraction unbound
Number, no unit, nothing else.

## Task Indicate its recorded fraction unbound; the compound in question is C[C@@H]1CN(c2c(F)c(N)c3c(=O)c(C(=O)O)cn(C4CC4)c3c2F)C[C@H](C)N1
## Result 0.26

---

Test: Half life in BALB/c mouse at 5 to 1000 mg/kg, po
Assay type: ADME, organism-based
Set-up: dose 5-1000 mg/kg, route oral
Settings: in vivo
metric: half-life (h)
Number only, in h; omit the unit.

## Task Item C[C@@H]1CN(c2c(F)c(N)c3c(=O)c(C(=O)O)cn(C4CC4)c3c2F)C[C@H](C)N1 : provide half-life
## Result 9.8

---

Experiment: Half life in BALB/c mouse at 37.5 to 2400 mg/kg, po
Type: ADME, organism-based
Design: dose 37.5-2400 mg/kg, route oral
Settings: in vivo
metric: half-life (h)
Give the number; h is assumed, so skip it.

## Task Read off the recorded half-life for CC1COc2c(N3CCN(C)CC3)c(F)cc3c(=O)c(C(=O)O)cn1c23 (stereo unspecified)
## Result 4.93

---

Experiment: Cmax in BALB/c mouse at 5 to 1000 mg/kg, po
Type: ADME, organism-based
Design: dose 5-1000 mg/kg, route oral
Conditions: in vivo
metric: Cmax (ng/mL)
Numeric only. Scale: ng/mL

## Task Given C[C@@H]1CN(c2c(F)c(N)c3c(=O)c(C(=O)O)cn(C4CC4)c3c2F)C[C@H](C)N1 , respond with its Cmax.
## Result 750

---

Assay: AUC(0-infinity) in BALB/c mouse at 6 to 400 mg/kg, po
Assay type: ADME, organism-based
Set-up: dose 6-400 mg/kg, route oral
Conditions: plasma
metric: AUC(0-inf) (ng·h/mL)
Dear colleague, please return just the value in ng·h/mL, with no unit written.

## Task For COc1c(N2C[C@@H]3CCCN[C@@H]3C2)c(F)cc2c(=O)c(C(=O)O)cn(C3CC3)c12 , write its AUC(0-inf).
## Result 25000

---

Listing of entries alongside the reported Cmax.
Experiment: Cmax in BALB/c mouse at 37.5 to 2400 mg/kg, po
Format: ADME, organism-based
Set-up: dose 37.5-2400 mg/kg, route oral
Settings: in vivo
Value expressed in ng/mL; do not type the unit.

[[record]]
molecule = "CC1COc2c(N3CCN(C)CC3)c(F)cc3c(=O)c(C(=O)O)cn1c23 (configuration not stated) [OFLOXACIN]"
metric = "Cmax"
measurement = 1700


## Task Using the record for O=C(O)c1cn(C2CC2)c2cc(N3CCNCC3)c(F)cc2c1=O [CIPROFLOXACIN] , state its measured Cmax.
## Result 1200

---

Assay: AUC(0-infinity) in BALB/c mouse at 5 to 1000 mg/kg, po
Format: ADME, organism-based
Parameters: dose 5-1000 mg/kg, route oral
Conditions: plasma
metric: AUC(0-inf) (ng·h/mL)
State the answer as a number, implicitly in ng·h/mL.

## Task Specify AUC(0-inf) for C[C@@H]1CN(c2c(F)c(N)c3c(=O)c(C(=O)O)cn(C4CC4)c3c2F)C[C@H](C)N1 and stop.
## Result 43000

---

Entries and their log10CFU/ml
System: Mycobacterium tuberculosis
Assay: Antimicrobial activity against Mycobacterium tuberculosis […] on day 7
Type: functional
Give the figure only, with no unit attached.

[[record]]
molecule = "O=C(O)c1cn(C2CC2)c2cc(N3CCNCC3)c(F)cc2c1=O [CIPROFLOXACIN]"
measurement = 3

[[record]]
molecule = "C[C@@H]1CN(c2c(F)c(N)c3c(=O)c(C(=O)O)cn(C4CC4)c3c2F)C[C@H](C)N1 [SPARFLOXACIN]"
measurement = 3

[[record]]
molecule = "CC1COc2c(N3CCN(C)CC3)c(F)cc3c(=O)c(C(=O)O)cn1c23 (centres undefined) [OFLOXACIN]"
measurement = 3


As a next step, examine the molecule that follows.
## Task Give a short answer stating reported log10CFU/ml for COc1c(N2C[C@@H]3CCCN[C@@H]3C2)c(F)cc2c(=O)c(C(=O)O)cn(C3CC3)c12 [MOXIFLOXACIN] .
## Result 3

---

Tested on: Mycobacterium tuberculosis
Experiment: Antimicrobial activity against Mycobacterium tuberculosis H37Rv in 7H9 broth
Format: functional
metric: MIC (µg/mL)
Field format: number, assumed µg/mL, no unit text.

Examples with answers:
[[record]]
compound = "O=C(O)c1cn(C2CC2)c2cc(N3CCNCC3)c(F)cc2c1=O"
measurement = 0.5

[[record]]
compound = "COc1c(N2C[C@@H]3CCCN[C@@H]3C2)c(F)cc2c(=O)c(C(=O)O)cn(C3CC3)c12"
measurement = 0.5

[[record]]
compound = "C[C@@H]1CN(c2c(F)c(N)c3c(=O)c(C(=O)O)cn(C4CC4)c3c2F)C[C@H](C)N1"
measurement = 0.1


Could you now look at the following compound, please?
## Task Name the recorded MIC of the item CC1COc2c(N3CCN(C)CC3)c(F)cc3c(=O)c(C(=O)O)cn1c23 (centres undefined) in your answer.
## Result 0.5

---

Test: Cmax in BALB/c mouse at 6 to 400 mg/kg, po
Type: ADME, organism-based
Design: dose 6-400 mg/kg, route oral
Conditions: in vivo
metric: Cmax (ng/mL)
Give the value, in units of ng/mL, as a plain number.

## Task Look up Cmax of COc1c(N2C[C@@H]3CCCN[C@@H]3C2)c(F)cc2c(=O)c(C(=O)O)cn(C3CC3)c12 and report it.
## Result 380
